target: T1, human GLP-1 receptor (human, UniProt P43220 24-463); assay: [125I]-GLP-1 competition SPA, hGLP-1R membranes
T1 construct: whole, on cells; also called hGLP-1R; hGLP1R
Items are presented alongside their recorded pKi.
pKi (log units): -log10 of the concentration in mol/L.

Exam item: Looking for the measured pKi of YXEGTXTSDYSILLDXKAQXEFIXYLIEGGPSSGAPPPS (Aib2; αMeF(2F)6; Orn16; K17((2-[2-(2-Amino-ethoxy)-ethoxy]-acetyl)2-(γ-Glu)-CO-(CH2)16-CO2H); Aib20; D-Glu24; C-terminal NH2) [Example 248] , can you help?
Marked response: 8.62

Exam item: Looking for the measured pKi of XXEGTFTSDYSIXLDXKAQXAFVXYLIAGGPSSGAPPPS (not fully specified; D-Tyr1; Aib2; αMeL13; Orn16; K17((2-[2-(2-Amino-ethoxy)-ethoxy]-acetyl)2-(γ-Glu)-CO-(CH2)16-CO2H); Aib20; D-Glu24; C-terminal NH2) [Example 364] , can you help?
Marked response: 7.76

Exam item: Looking for the measured pKi of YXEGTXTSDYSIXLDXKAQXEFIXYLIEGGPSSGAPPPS (Aib2; αMeF(2F)6; Aib13; Orn16; K17((2-[2-(2-Amino-ethoxy)-ethoxy]-acetyl)2-(γ-Glu)-CO-(CH2)18-CO2H); Aib20; D-Glu24; C-terminal NH2) [Example 250] , can you help?
Marked response: 8.76

Exam item: Looking for the measured pKi of YXEGTXTSDYSILLDKKAQXEFIEYLIEGGPSSG (Aib2; αMeF6; K17((2-[2-(2-Amino-ethoxy)-ethoxy]-acetyl)2-(γ-Glu)-CO-(CH2)16-CO2H); Aib20; C-terminal NH2) [Example 308] , can you help?
Marked response: 9.00

Exam item: Looking for the measured pKi of YXEGTXTSDXSIXLDXKAQXEFIXYLIEGGPSSGAPPPS (Aib2; αMeF6; 4Pal10; αMeL13; Dab16; K17((2-[2-(2-Amino-ethoxy)-ethoxy]-acetyl)2-(γ-Glu)-CO-(CH2)16-CO2H); Aib20; D-Glu24; C-terminal NH2) [Example 235] , can you help?
Marked response: 8.12

Exam item: Looking for the measured pKi of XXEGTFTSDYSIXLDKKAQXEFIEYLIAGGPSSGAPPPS (D-Tyr1; Aib2; αMeL13; K17((2-[2-(2-Amino-ethoxy)-ethoxy]-acetyl)2-(γ-Glu)-CO-(CH2)18-CO2H); Aib20; C-terminal NH2) [Example 290] , can you help?
Marked response: 8.61
